experiment: soluble on expression in E. coli; label from the status in PepcDB or PDB records
test_readout: soluble on expression in E. coli

Example sequences with recorded soluble on expression in E. coli:
INSERT INTO assay_data (entry_sequence, test_readout, result) VALUES
  ('GQLQEPYETVTIDVEEQHQGPIMEKMGVRKAELTDMAPDGTGRIRMDFIMPSRGLIGFQTEFMTLTSGSGLIYHTFFEYGPHKGGEIGQRKNGVMIGNATGKALTNAIFNLQSRGRMLIGHGVDIYEG', 'soluble on expression in E. coli', 'not soluble'),
  ('MPQALSTDILIVGGGIAGLWLNARLRRAGYATVLVESASLGGGQSVKSQGIIHGGAKYALHGALTGASEAIADMPRRWRACLGSDGELDLRGVRLLSEAHYLWSPGGLAGSLTSFFASKAVRSRVEQAKGEDLPPALRDKGFKGKAYRLTEIVFDVPDLIRRLAELAGDSLLAGERIEPLREGRELAGLCVDGREIRAQRVVLSAGAGNEALLRELGLEQPAMQRRPLHMVMVKAATLKPLYAHCLGAGPKPRITVTTHPTRDGQSVWYLGGDIAETDGVARDEAAQIAEARRELAKLLPWIDLGQAQWATLRVDRAEPAQSNLLRPDNAFLAEQGRLLVGWPTKLALAPDFADRVCARLEEDGIRPSEHAALPQLPRPPLAEPAWEVAFALEHHHHHH', 'soluble on expression in E. coli', 'not soluble'),
  ('SPASGPGPRRVQRRAWPPDKEQEKEKKSVICVEGNIASGKTTCLEFFSNATDVEVLTEPVSKWRNVRGHNPLGLMYHDASRWGLTLQTYVQLTMLDRHTRPQVSSVRLMERSIHSARYIFVENLYRSGKMPEVDYVVLSEWFDWILRNMDVSVDLIVYLRTNPETCYQRLKKRCREEEKVIPLEYLEAIHHLHEEWLIKGSLFPMAAPVLVIEADHHHMERMLELFEQNRDRILTPENRKHCP', 'soluble on expression in E. coli', 'soluble'),
  ('VRSSSRTPSDMPVAHVVANPQAEGQLQWKNAGANALLANGVELRDNQLVVPSEGLYLIYSQVLFSGQGCPSTHVLLTHTISRIAVSYQTPVNLLSAIRSPCQRETPEGAEANPWYEPIYLGGVFQLEPGDRLSAEINRPDYLDFASTGQVYFGIIAL', 'soluble on expression in E. coli', 'soluble'),
  ('MSLTVSNNFKMIYIASCGEGINAFHLVESTLVQFPDSDITVVKVPHIRTESQVDHLLDRVKDVESLIAHTIVEPNLRQYLVTKAEEHKIVTIDLMGQVLNKIETFLSIRPLGKPGLYRETHQVDLKQVTAIDFALAHDDGLRPESLDEAEIILVGLSRAGKTPLSMYMGVMGWKVANIPYVPGVPMPQTLDEVDRRRVIALNINIEQLLSHRKMRQESLGTSDMHAYSRRQEVEVEVQTAQKYYITKGFSMIDVSNKPIETSAEEIAEMITRRFKAQAHEGHHHHHH', 'soluble on expression in E. coli', 'not soluble');

Prompt: Look at this sequence and give its reported soluble on expression in E. coli. MATAAASVVSSETGDLRAYMAANPAAVIEEVAKQWNVSPHAVIAALPDGMARLGPGDGFVAAMNDIATWGEVTLIVHTEDAIFEFTGEVPRGEISRGYFNLMQPKGLHGHLRHDRCGALAFVERPFMGKASAFVAFLNRDGGIMFKVFVGRDANRELRADQLARFHALAKQFSEEHSALEHHHHHH
Response: not soluble

Prompt: Dear colleague, I am looking for the recorded soluble on expression in E. coli of the following sequence: MGICVSFRREDSNSSPTVKIVTVNGDLREYNVPVIASQVLEAESAAAYSSSSSSRPSSYFICDSDSLYYDDFIPAIKSEEPLQADQIYFVLPISKRQSRLTASDMAALAVKASVAIQNSVKKESRRRKKVRISPVMMLTGSNDSVNGNGSETTVKKGRPFVSKTAPVKASSGINRSGSVRNLRRYTSKRAKLAVRSFRLKLSTIYEGSVV
Response: not soluble

Data provenance: the DeepSol protein solubility set
